assay: Dissociation of chelates in aq. 6.0M HCl at 80° C. (acid decomplexation kinetic inertness) (Chart 17); assay type: physicochemical; settings: 1 week
observationType: fraction of intact chelate (%)

smilesrecord=O=C1C[N@@]2CC[N@]3CC[N@@](CC[N@](CC2)Cc2cccc(n2)-c2cnnn2Cc2cc(-c4ccccc4)cc(n2)C3)CC(=O)[O][La][O]1 number=0
smilesrecord=O=C1C[N@@]2CC[N@]3CC[N@@](CC[N@](CC2)Cc2cccc(n2)-c2cnnn2Cc2cc(-c4ccccc4)cc(n2)C3)CC(=O)[O][Yb][O]1 number=98
smilesrecord=O=C1C[N@@]2CC[N@]3CC[N@@](CC[N@](CC2)Cc2cccc(n2)-c2cn(nn2)Cc2cc(-c4ccccc4)cc(n2)C3)CC(=O)[O][Lu][O]1 number=0
smilesrecord=O=C1C[N@@]2CC[N@]3CC[N@@](CC[N@](CC2)Cc2cccc(n2)-c2cnnn2Cc2cc(-c4ccccc4)cc(n2)C3)CC(=O)[O][Dy][O]1 number=0
smilesrecord=O=C1C[N@@]2CC[N@]3CC[N@@](CC[N@](CC2)Cc2cccc(n2)-c2cnnn2Cc2cc(-c4ccc(C(=O)O)cc4)cc(n2)C3)CC(=O)[O][Lu][O]1 number=100
smilesrecord=O=C1C[N@@]2CC[N@]3CC[N@@](CC[N@](CC2)Cc2cccc(n2)-c2cnnn2Cc2cc(-c4ccccc4)cc(n2)C3)CC(=O)[O][Ce][O]1 number=0
smilesrecord=O=C1C[N@@]2CC[N@]3CC[N@@](CC[N@](CC2)Cc2cccc(n2)-c2cnnn2Cc2cc(-c4ccccc4)cc(n2)C3)CC(=O)[O][Ho][O]1 number=17
